biological target: Glycogen synthase kinase-3 beta (Homo sapiens); test: Inhibition of GSK3-beta in human SH-Sy5Y cells assessed as reduction of amyloid beta (25-35)-induced Tau hyperphosphorylation at Ser396 at 10 uM treated 1 hr before amyloid beta (25-35) challenge measured after 6 hrs by Western blotting; format: cell-based
Sequence (P49841 whole entry, looked up): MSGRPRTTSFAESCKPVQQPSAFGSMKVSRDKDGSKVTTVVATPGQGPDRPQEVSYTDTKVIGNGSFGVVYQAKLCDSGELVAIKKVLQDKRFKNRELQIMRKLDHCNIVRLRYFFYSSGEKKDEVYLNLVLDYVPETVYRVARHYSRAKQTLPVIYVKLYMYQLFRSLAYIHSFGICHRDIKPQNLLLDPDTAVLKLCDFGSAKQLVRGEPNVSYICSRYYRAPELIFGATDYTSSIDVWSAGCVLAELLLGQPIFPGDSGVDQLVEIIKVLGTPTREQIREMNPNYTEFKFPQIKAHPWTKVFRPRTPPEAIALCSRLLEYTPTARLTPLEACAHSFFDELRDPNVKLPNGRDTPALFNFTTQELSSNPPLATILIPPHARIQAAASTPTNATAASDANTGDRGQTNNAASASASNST
Calls of active or inactive are those of the source. The rule behind the calls is not given here.
Hello, when you answer, please use one of the following outcomes: yes (1) for active, no (0) for inactive

Worked set:
Lab log entry: O=C1NC(=O)C(n2ccc3ncccc32)=C1c1cn(CCCCn2ccnc2)c2ccccc12 — outcome as called in the assay? no (0)

Would you mind telling me which call this test gave O=C1NC(=O)C(n2ccc3ncccc32)=C1c1cn(CCCn2ccnc2)c2cc(Br)ccc12 ? no (0)

Record request — test call for O=C1NC(=O)C(n2ccc3ncccc32)=C1c1cn(CCn2ccnc2)c2ccccc12 no (0)

Further cases:
Assay outcome for COc1ccc2c(c1)c(C1=C(n3ccc4ncccc43)C(=O)NC1=O)cn2CCCn1ccnc1 : what was it? no (0)

Entry O=C1NC(=O)C(n2ccc3ncccc32)=C1c1cn(CCCn2ccnc2)c2ccc(Br)cc12 : call = ? yes (1)

Record lookup: outcome of this test for Cn1cc(C2=C(c3cn(CCCN4CCOCC4)c4ccccc34)C(=O)NC2=O)c2ncccc21 ? yes (1)

----------
target: Mitogen-activated protein kinase 3 (Homo sapiens, UniProt P27361); test: Inhibition of recombinant ERK1 expressed in Escherichia coli
Sequence (P27361 whole entry): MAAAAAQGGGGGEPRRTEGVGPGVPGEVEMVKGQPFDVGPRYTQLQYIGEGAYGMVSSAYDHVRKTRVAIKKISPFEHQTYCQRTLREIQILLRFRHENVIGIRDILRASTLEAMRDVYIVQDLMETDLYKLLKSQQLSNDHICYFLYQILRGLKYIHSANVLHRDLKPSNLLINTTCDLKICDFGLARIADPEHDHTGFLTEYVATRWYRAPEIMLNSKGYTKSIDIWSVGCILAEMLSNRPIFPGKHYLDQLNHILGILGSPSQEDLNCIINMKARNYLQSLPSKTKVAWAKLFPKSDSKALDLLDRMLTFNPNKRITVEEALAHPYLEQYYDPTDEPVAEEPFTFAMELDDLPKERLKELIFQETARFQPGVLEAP
Reported IC50 values for the following compounds.

Example results:
GET /values?readout=IC50&item= O=C1NC(=O)C(n2ccc3ncccc32)=C1c1cn(CCn2ccnc2)c2ccccc12 > 40 µM

# get_value(readout='IC50', item= Cn1cc(C2=C(c3cn(CCCN4CCOCC4)c4ccccc34)C(=O)NC2=O)c2ncccc21 ) > 40 µM

Next compound, IC50 to be filled in.
Could you tell me which IC50 is on file for O=C1NC(=O)C(n2ccc3ncccc32)=C1c1cn(CCCn2ccnc2)c2ccc(Br)cc12 ? > 40 µM

----------
biological target: Protein kinase C epsilon type (Homo sapiens); experiment: Inhibition of recombinant PKCE expressed in Bac-to Bac baculovirus system
Sequence (Q02156 whole entry): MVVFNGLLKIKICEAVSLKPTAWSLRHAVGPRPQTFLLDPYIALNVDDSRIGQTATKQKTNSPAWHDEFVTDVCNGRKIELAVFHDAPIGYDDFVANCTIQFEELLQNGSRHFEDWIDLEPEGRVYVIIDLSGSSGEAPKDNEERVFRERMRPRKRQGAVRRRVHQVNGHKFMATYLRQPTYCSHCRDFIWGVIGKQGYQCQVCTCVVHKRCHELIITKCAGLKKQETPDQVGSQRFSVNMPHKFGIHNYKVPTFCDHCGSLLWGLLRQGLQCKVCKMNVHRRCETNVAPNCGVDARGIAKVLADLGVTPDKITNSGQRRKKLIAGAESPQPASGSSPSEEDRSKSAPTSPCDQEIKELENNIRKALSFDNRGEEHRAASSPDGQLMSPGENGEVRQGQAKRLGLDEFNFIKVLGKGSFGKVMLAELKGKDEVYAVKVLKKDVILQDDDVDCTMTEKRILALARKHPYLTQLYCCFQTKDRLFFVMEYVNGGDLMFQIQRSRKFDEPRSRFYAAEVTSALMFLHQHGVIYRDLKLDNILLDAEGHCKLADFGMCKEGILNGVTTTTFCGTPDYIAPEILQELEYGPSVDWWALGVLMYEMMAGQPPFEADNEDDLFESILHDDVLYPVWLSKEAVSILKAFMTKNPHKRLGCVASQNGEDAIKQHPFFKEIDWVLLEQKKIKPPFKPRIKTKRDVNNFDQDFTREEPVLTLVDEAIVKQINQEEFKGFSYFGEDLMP
Reported IC50 by item:

Sample records with IC50:
Which IC50 reading was recorded for the compound O=C1NC(=O)C(n2ccc3ncccc32)=C1c1cn(CCn2ccnc2)c2ccccc12 ? > 40 µM

Fill in: IC50 of Cn1cc(C2=C(c3cn(CCCN4CCOCC4)c4ccccc34)C(=O)NC2=O)c2ncccc21 is ___ > 40 µM

Now let's try a different one.
Could you share which IC50 value was measured for O=C1NC(=O)C(n2ccc3ncccc32)=C1c1cn(CCCn2ccnc2)c2ccc(Br)cc12 ? > 40 µM
